# ASSAYED_TARGET: T1, hNPR1-mFc:hANP or hNPR1-hFc:hANP complex (human, UniProt P01160 124-151)
# T1 construct: also called human NPR1 complexed to ANP
# ASSAY_METHOD_TEXT: SPR, mAb captured, 25C
MEASURED_PROPERTY: 100 nM Ag Bound (RU)
Report the figure in RU without appending any unit label.

binder="mAb25479 (antibody, human IgG4, V domains shown) VH: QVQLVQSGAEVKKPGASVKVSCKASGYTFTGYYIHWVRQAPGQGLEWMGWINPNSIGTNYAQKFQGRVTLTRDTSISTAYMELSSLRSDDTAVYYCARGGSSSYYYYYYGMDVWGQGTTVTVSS VL: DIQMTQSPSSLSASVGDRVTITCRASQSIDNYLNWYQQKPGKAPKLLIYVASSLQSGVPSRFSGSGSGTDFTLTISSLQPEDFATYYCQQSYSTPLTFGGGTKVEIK" units_symbol=RU reported=49
binder="mAb22810 (antibody, human IgG4, V domains shown) VH: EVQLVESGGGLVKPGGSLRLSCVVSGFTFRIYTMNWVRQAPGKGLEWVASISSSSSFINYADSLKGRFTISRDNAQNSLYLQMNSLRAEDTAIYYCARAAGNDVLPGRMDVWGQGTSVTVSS VL: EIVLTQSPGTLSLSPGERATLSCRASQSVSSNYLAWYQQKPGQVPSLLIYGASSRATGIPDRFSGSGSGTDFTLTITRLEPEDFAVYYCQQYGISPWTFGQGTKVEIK" units_symbol=RU reported=14
binder="mAb25502 (antibody, human IgG4, V domains shown) VH: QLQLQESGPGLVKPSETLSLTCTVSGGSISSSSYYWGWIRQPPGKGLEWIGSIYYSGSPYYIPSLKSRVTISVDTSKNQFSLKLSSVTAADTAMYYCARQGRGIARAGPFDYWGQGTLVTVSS VL: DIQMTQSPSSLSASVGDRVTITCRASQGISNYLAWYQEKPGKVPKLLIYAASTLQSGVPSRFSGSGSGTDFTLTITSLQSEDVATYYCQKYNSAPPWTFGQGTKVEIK" units_symbol=RU reported=81
binder="mAb22035 (antibody, human IgG4, V domains shown) VH: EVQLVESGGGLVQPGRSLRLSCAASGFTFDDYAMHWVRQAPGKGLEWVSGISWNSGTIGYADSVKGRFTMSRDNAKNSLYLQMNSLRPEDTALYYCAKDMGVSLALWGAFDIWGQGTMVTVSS VL: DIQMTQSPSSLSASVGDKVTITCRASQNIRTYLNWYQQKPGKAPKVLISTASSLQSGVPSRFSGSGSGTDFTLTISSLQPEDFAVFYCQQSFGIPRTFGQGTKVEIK" units_symbol=RU reported=186

Next binder, 100 nM Ag Bound (RU) to be filled in.
Write down 100 nM Ag Bound (RU) measured for item mAb25508 (antibody, human IgG4, V domains shown) VH: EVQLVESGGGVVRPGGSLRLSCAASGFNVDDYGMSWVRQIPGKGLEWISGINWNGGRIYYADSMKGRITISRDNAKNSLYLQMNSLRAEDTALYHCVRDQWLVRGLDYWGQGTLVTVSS VL: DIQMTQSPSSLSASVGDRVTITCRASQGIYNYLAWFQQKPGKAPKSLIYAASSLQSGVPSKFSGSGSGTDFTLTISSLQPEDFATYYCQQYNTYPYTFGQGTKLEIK
199

Entry source: patent US20240309103A1
